SUBJECT OF TEST: BRD4 BD1 (Homo sapiens)
ASSAY NOTES: AlphaScreen binding assay, BRD4 Bromodomain 1
pIC50: −log10 of the molar value.
METRIC: pIC50

COMPOUND	pIC50
CCOC(=O)N1C[C@H](C)N(C(C)=O)c2ccc(-c3cccc(NS(=O)(=O)CC)c3)cc21	5.00 to 6.00
CC(=O)N1c2ccc(-c3cnn(C4CC4)c3)cc2N(C(=O)Oc2cccc3cccnc23)C[C@@H]1C	6.00 to 7.00
CC(=O)N1c2ccccc2N(S(=O)(=O)c2ccccc2F)C[C@@H]1C	< 5.00
CC(=O)N1c2ccc(-c3ccc(S(C)(=O)=O)c(F)c3)cc2N(C(=O)OC2CCOCC2)C[C@@H]1C	5.00 to 6.00
CC(=O)N1c2ccc(-c3ccc(S(=O)(=O)N4CCC4)cc3)cc2N(C(=O)c2ccco2)C[C@@H]1C	6.00 to 7.00

For `CC(=O)N1c2ccccc2N(C(=O)c2cc3ccncc3s2)C[C@@H]1C` the compound record lists pIC50 as < 5.00

====

SUBJECT OF TEST: BRD4 BD1 (Homo sapiens)
ASSAY NOTES: AlphaScreen binding assay, BRD4 Bromodomain 1
pIC50: −log10 of the molar value.
Listed here: items and their measured pIC50.

MOLECULE	SUBJECT OF TEST	RESULT
CC(=O)N1c2ccc(-c3ccc(N4CCCS4(=O)=O)cc3)cc2N(C(=O)Oc2ccccn2)C[C@@H]1C	BRD4 BD1 (Homo sapiens)	6.00 to 7.00
CC(=O)N1c2ccc(-c3ccc(C(=O)N4CCN(C)CC4)cc3)cc2N(C(=O)OC(C)C)C[C@@H]1C	BRD4 BD1 (Homo sapiens)	6.00 to 7.00
CC(=O)N1c2ccccc2N(C(=O)c2ccc3c(c2)OCO3)C[C@@H]1C	BRD4 BD1 (Homo sapiens)	< 5.00
CC(=O)N1c2ccc(-c3cccc(NS(C)(=O)=O)c3)cc2N(C(=O)C2CC2)C[C@@H]1C	BRD4 BD1 (Homo sapiens)	5.00 to 6.00
CC(=O)N1c2ccc(-c3cnn(C4CC4)c3)cc2N(C(=O)Oc2ccc(C)nc2)C[C@@H]1C	BRD4 BD1 (Homo sapiens)	> 7.00
COc1ncc(-c2ccc3c(c2)N(C(=O)c2ccco2)C[C@H](C)N3C(C)=O)cn1	BRD4 BD1 (Homo sapiens)	5.00 to 6.00
CC(=O)N1c2ccc(-c3cnn(Cc4ccncc4)c3)cc2N(C(=O)C2CC2)C[C@@H]1C	BRD4 BD1 (Homo sapiens)	5.00 to 6.00
CC(=O)N1c2ccc(-c3cnn(CCS(C)(=O)=O)c3)cc2N(C(=O)Oc2cccnc2)C[C@@H]1C	BRD4 BD1 (Homo sapiens)	6.00 to 7.00

For `CC(=O)N1c2ccc(-c3ccc(S(C)(=O)=O)cc3)cc2N(C(=O)NCc2ccccc2Cl)C[C@@H]1C` the molecule record lists pIC50 as < 5.00

For `CC(=O)N1c2ccc(-c3cnn(CC4COC4)c3)cc2N(C(=O)OC(C)C)C[C@@H]1C` the molecule record lists pIC50 as 6.00 to 7.00

For `CC(=O)N1c2ccccc2N(S(=O)(=O)c2ccccc2)C[C@@H]1C` the molecule record lists pIC50 as < 5.00

For `CC(=O)N1c2ccc(-c3ccc(N4CCCC4=O)cc3)cc2N(C(=O)OC2CCOCC2)C[C@@H]1C` the molecule record lists pIC50 as 6.00 to 7.00

For `CC(=O)N1c2ccc(-c3ccc(S(C)(=O)=O)cc3)cc2N(C(=O)c2cn(C)cn2)C[C@@H]1C` the molecule record lists pIC50 as < 5.00

For `CC(=O)N1c2ccc(-c3ccc(S(=O)(=O)C(C)C)cc3)cc2N(C(=O)C2CCC2)C[C@@H]1C` the molecule record lists pIC50 as 5.00 to 6.00

For `COc1ccc(-c2ccc3c(c2)N(C(=O)OC2CCOCC2)C[C@H](C)N3C(C)=O)cc1NS(C)(=O)=O` the molecule record lists pIC50 as 6.00 to 7.00

For `CNS(=O)(=O)c1cccc(-c2ccc3c(c2)N(C(=O)OC(C)C)C[C@H](C)N3C(C)=O)c1` the molecule record lists pIC50 as 6.00 to 7.00

For `CC(=O)N1c2ccc(-c3cnn(C4CCOCC4)c3)cc2N(C(=O)OC2CCC2)C[C@@H]1C` the molecule record lists pIC50 as 6.00 to 7.00

For `CCN(CC)C(=O)c1ccc(-c2ccc3c(c2)N(C(=O)OC(C)C)C[C@H](C)N3C(C)=O)cc1` the molecule record lists pIC50 as 6.00 to 7.00

For `COC(=O)N1c2ccc(-c3cnn(C(C)(C)CO)c3)cc2N(C(=O)Oc2cccnc2)C[C@@H]1C` the molecule record lists pIC50 as 5.00 to 6.00

For `COC(=O)N1c2ccc(-c3cnn(CC(=O)N4CCCCC4)c3)cc2N(C(=O)OC(C)C)C[C@@H]1C` the molecule record lists pIC50 as 5.00 to 6.00

For `CC(C)OC(=O)N1C[C@H](C)N(C(=O)C2CC2)c2ccc(-c3ccc(S(=O)(=O)CCO)cc3)cc21` the molecule record lists pIC50 as 6.00 to 7.00

For `C[C@H]1CN(C(=O)OCC2CC2)c2cc(-c3cnn(C4CC4)c3)ccc2N1C(=O)C1CC1` the molecule record lists pIC50 as 6.00 to 7.00

For `COC(=O)N1c2ccc(-c3ccc(N4CCCS4(=O)=O)cc3)cc2N(C(=O)Oc2cccnc2)C[C@@H]1C` the molecule record lists pIC50 as 5.00 to 6.00

For `CC(=O)N1c2ccc(-c3cnn(C4CC4)c3)cc2N(C(=O)Oc2cccc(C(F)(F)F)c2)C[C@@H]1C` the molecule record lists pIC50 as 5.00 to 6.00

For `CC(=O)N1c2ccc(-c3cccc(S(C)(=O)=O)c3)cc2N(C(=O)OC2CCOCC2)C[C@@H]1C` the molecule record lists pIC50 as 6.00 to 7.00

====

SUBJECT OF TEST: BRD4 BD2 (Homo sapiens)
ASSAY NOTES: AlphaScreen binding assay, BRD4 Bromodomain 2
pIC50: −log10 of the molar value.
Listed here: items and their measured pIC50.

Answered examples (3):
COMPOUND	RESULT
CC(=O)N1c2ccccc2N(S(=O)(=O)Cc2ccc(Cl)cc2)C[C@@H]1C	< 6.30
CC(C)OC(=O)N1C[C@H](C)N(C(C)C2CC2)c2ccc(-c3cnn(C4CNC4)c3)cc21 (stereo partly shown)	6.30 to 7.30
CC(=O)N1c2ccc(-c3ccc(S(C)(=O)=O)cc3)cc2N(c2ncc(-c3ccccc3)cn2)C[C@@H]1C	< 6.30

For `CC(=O)N1c2ccc(-c3ccc(S(C)(=O)=O)cc3)cc2N(C(=O)c2ccc(OC(F)(F)F)cc2)C[C@@H]1C` the compound record lists pIC50 as < 6.30

====

SUBJECT OF TEST: BRD4 BD1 (Homo sapiens)
ASSAY NOTES: AlphaScreen binding assay, BRD4 Bromodomain 1
pIC50: −log10 of the molar value.
METRIC: pIC50

Answered examples (5):
COMPOUND STRUCTURE	pIC50
CC(=O)N1c2ccc(-c3cnn(CC(=O)N(C)C4CC4)c3)cc2N(C(=O)C2CC2)C[C@@H]1C	5.00 to 6.00
CC(=O)N1c2ccc(-c3cnn(C4CC4)c3)cc2N(C(=O)Oc2cccc3ncccc23)C[C@@H]1C	6.00 to 7.00
CC(=O)N1c2ccc(-c3ccc(S(C)(=O)=O)cc3)cc2N(C(=O)Nc2ccccc2)C[C@@H]1C	5.00 to 6.00
CC(=O)N1c2ccc(-c3cnn([C@@H]4CCCS(=O)(=O)C4)c3)cc2N(C(=O)OC2CCC2)C[C@@H]1C	6.00 to 7.00
CC(=O)N1c2ccc(-c3cnn(C4COC4)c3)cc2N(C(=O)OCC2COC2)C[C@@H]1C	5.00 to 6.00

For `CC(=O)N1c2ccccc2N(C(=O)c2cccc3ccccc23)C[C@@H]1C` the molecule record lists pIC50 as < 5.00

For `CC(=O)N1c2ccc(-c3cnn([C@H]4CCCS(=O)(=O)C4)c3)cc2N(C(=O)OCC2CC2)C[C@@H]1C` the molecule record lists pIC50 as 6.00 to 7.00

====

SUBJECT OF TEST: BRD4 BD2 (Homo sapiens, UniProt O60885)
ASSAY NOTES: AlphaScreen binding assay, BRD4 Bromodomain 2
pIC50: −log10 of the molar value.
METRIC: pIC50

Answered examples (10):
COMPOUND STRUCTURE	METRIC	RESULT
CC(=O)N1c2cc(NS(C)(=O)=O)c(-c3cnn(C4CC4)c3)cc2N(C(=O)OC(C)C)C[C@@H]1C	pIC50	< 6.30
CC(=O)N1c2ccccc2N(C(=O)c2ccc3c(c2)CCO3)C[C@@H]1C	pIC50	< 6.30
CC(=O)N1c2ccc(-c3ccc(S(C)(=O)=O)cc3)cc2N(C(=O)c2cn3ccncc3n2)C[C@@H]1C	pIC50	< 6.30
COC(=O)N1c2ccc(-c3ccc(S(=O)(=O)CCN)cc3)cc2N(C(=O)C2CC2)C[C@@H]1C	pIC50	6.30 to 7.30
CC(=O)N1c2ccc(-c3cnn(C4COC4)c3)cc2N(C(=O)OCC(Cl)Cl)C[C@@H]1C	pIC50	6.30 to 7.30
CC(=O)N1c2ccccc2N(S(=O)(=O)Cc2ccccc2)C[C@@H]1C	pIC50	< 6.30
CC(=O)N1c2ccc(-c3ccc(C(=O)NCc4ncco4)cc3)cc2N(C(=O)OC(C)C)C[C@@H]1C	pIC50	6.30 to 7.30
CC(=O)N1c2ccccc2N(C(=O)COc2ccccc2)C[C@@H]1C	pIC50	< 6.30
CC(=O)N1c2ccc(-c3cnn(C4COC4)c3)cc2N(C(=O)C(C)(C)Cl)C[C@@H]1C	pIC50	< 6.30
CC(=O)N1c2ccc(-c3ccc(C(=O)N4CC[C@@H](O)C4)cc3)cc2N(C(=O)OC(C)C)C[C@@H]1C	pIC50	6.30 to 7.30

Form field pIC50 for item `CNS(=O)(=O)c1cccc(-c2ccc3c(c2)N(C(=O)C2CCC2)C[C@H](C)N3C(C)=O)c1` on BRD4 BD2 (Homo sapiens, UniProt O60885): 6.30 to 7.30

Form field pIC50 for item `CC(=O)N1c2ccc(-c3cccc(C(=O)N4CCOCC4)c3)cc2N(C(=O)c2ccco2)C[C@@H]1C` on BRD4 BD2 (Homo sapiens, UniProt O60885): > 7.30

Form field pIC50 for item `COc1ccc(-c2ccc3c(c2)N(C(=O)OC(C)C)C[C@H](C)N3C(C)=O)cc1N1CCCS1(=O)=O` on BRD4 BD2 (Homo sapiens, UniProt O60885): 6.30 to 7.30

Form field pIC50 for item `CC(=O)N1c2ccc(-c3cnn(CCCO)c3)cc2N(C(=O)C2CC2)C[C@@H]1C` on BRD4 BD2 (Homo sapiens, UniProt O60885): 6.30 to 7.30

Form field pIC50 for item `COc1ccc(F)c(OC(=O)N2C[C@H](C)N(C(C)=O)c3ccc(-c4cnn(C5CC5)c4)cc32)c1` on BRD4 BD2 (Homo sapiens, UniProt O60885): 6.30 to 7.30

Form field pIC50 for item `CC(=O)N1c2ccc(-c3ccc(S(C)(=O)=O)cc3)cc2N(C(=O)c2cccc(N)c2)C[C@@H]1C` on BRD4 BD2 (Homo sapiens, UniProt O60885): 6.30 to 7.30

These data points were gathered from patent US10703764B2.
